# test-target: STK4 (human) (UniProt Q13043)
# Sequence (Q13043 whole entry, looked up): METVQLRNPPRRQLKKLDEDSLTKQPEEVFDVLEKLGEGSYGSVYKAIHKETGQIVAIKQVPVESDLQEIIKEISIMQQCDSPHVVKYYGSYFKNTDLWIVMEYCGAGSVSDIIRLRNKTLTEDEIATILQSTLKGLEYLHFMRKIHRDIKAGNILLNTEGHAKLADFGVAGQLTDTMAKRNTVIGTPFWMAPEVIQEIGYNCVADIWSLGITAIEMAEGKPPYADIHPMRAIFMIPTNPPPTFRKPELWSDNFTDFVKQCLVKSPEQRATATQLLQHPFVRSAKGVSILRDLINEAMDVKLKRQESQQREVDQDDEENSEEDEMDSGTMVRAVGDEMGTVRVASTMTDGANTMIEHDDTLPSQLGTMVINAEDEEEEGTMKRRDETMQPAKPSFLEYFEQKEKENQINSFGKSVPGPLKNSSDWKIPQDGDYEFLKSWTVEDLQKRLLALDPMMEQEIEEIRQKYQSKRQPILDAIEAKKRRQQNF
# procedure-details: radiometric filter-binding kinase assay, Kinase HotSpot
# condition: compound 0.5 µM; ATP 10 µM
observation-type: residual activity (%)
Answer in %, number only, no unit symbol.

Please give measured residual activity of the following entry: O=c1cc(N2CCOCC2)oc2c1ccc1ccccc12
99.5

Read the entry CCN(CC)CCNC(=O)c1c(C)[nH]c(/C=C2\C(=O)Nc3ccc(F)cc32)c1C and write its reported residual activity.
10.7

Read off the recorded residual activity for CCC(=O)Nc1ccc2ncnc(Nc3cccc(Br)c3)c2c1
97.1

Please report residual activity for the following compound: CC#CC(=O)Nc1cc2c(Nc3ccc(F)c(Cl)c3)ncnc2cn1
98.7

State, in one line, measured residual activity of CCN(CC)CCNC(=O)c1c(C)[nH]c(/C=C2\C(=O)Nc3ccc(Cl)cc32)c1C
2.98

Name the recorded residual activity of the item c1ccc(-c2n[nH]cc2-c2ccnc3ccccc23)nc1 in your answer.
101

Please indicate residual activity recorded for CCOC(=O)c1c(C)[nH]c(/C=C2\C(=O)Nc3ccccc32)c1C
83.4

Hello, please tell me recorded residual activity for this one: CC(C)N(CCC(=O)c1ccc2ccccc2c1)Cc1ccccc1
92.5

Entry O=C1Nc2ccc(Cl)cc2/C1=C/c1cc(Cl)c(O)c(Cl)c1 needs its residual activity filled in; supply it.
32.5

Supply recorded residual activity for Nc1ncnc2[nH]nc(Nc3ccc(F)cc3)c12 here.
90.4

Identify measured residual activity corresponding to COc1cc2ncnc(Nc3cccc(Cl)c3)c2cc1OC
92

Provide measured residual activity value, entry: CCN(CC)C(=O)c1ccc(Nc2nc(OCC3CCCCC3)c3nc[nH]c3n2)cc1
46.3

Quick one: give measured residual activity for O=C1NC(=O)/C(=C/c2ccc3c(c2)OC(F)(F)O3)S1
93.3

Please give the documented residual activity of O=S(=O)(c1cccc2cnccc12)N1CCCNCC1
94.8

Hello, please tell me recorded residual activity for this one: CC(=O)c1ccc(N2CCOCC2)cc1O
102

Tell us which residual activity value is on record for Cc1ccc(Nc2nccc(N(C)c3ccc4c(C)n(C)nc4c3)n2)cc1S(N)(=O)=O
98.4

Tell me measured residual activity for Nc1ncnc2c1c(-c1ccc(Oc3ccccc3)cc1)cn2C1CCCC1 please.
77.8

Assign residual activity to the following record: O=C1NC(=O)c2c1c1c3ccccc3n3c1c1c2c2ccccc2n1C1CCC3O1
3.56

Give recorded residual activity. CNc1cc2c(Nc3cccc(Br)c3)ncnc2cn1
95.4

Could you please provide reported residual activity for CO[C@H]1CC2CC[C@@H](C)[C@@](O)(O2)C(=O)C(=O)N2CCCC[C@H]2C(=O)OC([C@H](C)C[C@@H]2CC[C@@H](O)[C@H](OC)C2)CC(=O)[C@H](C)/C=C(\C)[C@@H](O)[C@@H](OC)C(=O)[C@H](C)C[C@H](C)/C=C/C=C/C=C/1C (stereo partly specified) ? Thanks!
106

Answer with the recorded residual activity of CC[n+]1c(/C=C/N(C)c2ccccc2)n(-c2ccccc2)c2ccc(-c3nc4ccccc4s3)cc21 only.
98.3
